Numbers sourced from patent US20250018014A1.

Target: T1, full-length human Regnase-1 with a FLAG tag on the N-terminal side and a biotin ligase BirA recognition … (human, UniProt Q5D1E8 1-599, biotinylated at the BirA recognition sequence when required)
T1 sequence: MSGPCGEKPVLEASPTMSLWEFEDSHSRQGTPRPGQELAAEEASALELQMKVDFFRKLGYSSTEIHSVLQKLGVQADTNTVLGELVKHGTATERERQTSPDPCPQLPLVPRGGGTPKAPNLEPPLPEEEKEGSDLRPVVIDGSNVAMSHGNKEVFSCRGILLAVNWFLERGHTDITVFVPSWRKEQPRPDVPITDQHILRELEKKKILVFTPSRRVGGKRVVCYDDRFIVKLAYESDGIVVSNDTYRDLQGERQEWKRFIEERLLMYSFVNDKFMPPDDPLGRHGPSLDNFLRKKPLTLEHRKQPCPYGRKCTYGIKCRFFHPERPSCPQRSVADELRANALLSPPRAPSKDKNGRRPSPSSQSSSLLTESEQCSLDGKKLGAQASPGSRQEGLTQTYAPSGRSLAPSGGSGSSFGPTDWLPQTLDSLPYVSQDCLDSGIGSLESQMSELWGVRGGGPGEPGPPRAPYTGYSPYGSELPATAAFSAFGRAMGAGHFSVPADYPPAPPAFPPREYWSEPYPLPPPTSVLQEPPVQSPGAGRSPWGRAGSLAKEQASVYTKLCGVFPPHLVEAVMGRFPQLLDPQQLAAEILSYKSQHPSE
Experiment: cell-based or functional assay
Positions of bridges follow the written chain, without caps; N, C: chain ends. Non-standard residues stand in square brackets, D forms with d. *: point of attachment. Pyrrolidide = C1CCN(*)C1; dNMeA = CN[C@H](C)C(=O)O
Rule: Condition met for 50% inhibition concentration, Regnase-1 phosphorylation by IKKβ (AlphaScreen) not less than 20 µM, Condition not met for anything less.

Known results for binders:
binder: XHSNAWYNIWD (HELM PEPTIDE1{[meA].H.S.N.A.W.Y.N.I.W.D.[C1CCN([*:1])C1]}$PEPTIDE1,PEPTIDE1,1:R1-11:R3$$$V2.0; SMILES CC[C@H](C)[C@@H]1NC(=O)[C@H](CC(N)=O)NC(=O)[C@H](Cc2ccc(O)cc2)NC(=O)[C@H](Cc2c[nH]c3ccccc23)NC(=O)[C@H](C)NC(=O)[C@H](CC(N)=O)NC(=O)[C@H](CO)NC(=O)[C@H](Cc2c[nH]cn2)NC(=O)[C@H](C)N(C)C(=O)C[C@@H](C(=O)N2CCCC2)NC(=O)[C@H](Cc2c[nH]c3ccccc23)NC1=O) [PP5]
qualitative label: Condition met
//
binder: [dNMeA]TYGHSSWYKIWD-Pyrrolidide (lactam N-13) [PP9]
qualitative label: Condition not met
//
binder: [dNMeA]EDTPEDDHD-Pyrrolidide (lactam N-10) [PP25]
qualitative label: Condition met
//
binder: XNFSNSWYNIWD (HELM PEPTIDE1{[meA].N.F.S.N.S.W.Y.N.I.W.D.[C1CCN([*:1])C1]}$PEPTIDE1,PEPTIDE1,1:R1-12:R3$$$V2.0; SMILES CC[C@H](C)[C@@H]1NC(=O)[C@H](CC(N)=O)NC(=O)[C@H](Cc2ccc(O)cc2)NC(=O)[C@H](Cc2c[nH]c3ccccc23)NC(=O)[C@H](CO)NC(=O)[C@H](CC(N)=O)NC(=O)[C@H](CO)NC(=O)[C@H](Cc2ccccc2)NC(=O)[C@H](CC(N)=O)NC(=O)[C@H](C)N(C)C(=O)C[C@@H](C(=O)N2CCCC2)NC(=O)[C@H](Cc2c[nH]c3ccccc23)NC1=O) [PP16]
qualitative label: Condition met

Now look at this entry.
Textbook exercise: given the entry XRYAVYQWIYPD (HELM PEPTIDE1{[meA].R.Y.A.V.Y.Q.W.I.Y.P.D.[C1CCN([*:1])C1]}$PEPTIDE1,PEPTIDE1,1:R1-12:R3$$$V2.0; SMILES CC[C@H](C)[C@@H]1NC(=O)[C@H](Cc2c[nH]c3ccccc23)NC(=O)[C@H](CCC(N)=O)NC(=O)[C@H](Cc2ccc(O)cc2)NC(=O)[C@H](C(C)C)NC(=O)[C@H](C)NC(=O)[C@H](Cc2ccc(O)cc2)NC(=O)[C@H](CCCNC(=N)N)NC(=O)[C@H](C)N(C)C(=O)C[C@@H](C(=O)N2CCCC2)NC(=O)[C@@H]2CCCN2C(=O)[C@H](Cc2ccc(O)cc2)NC1=O) [PP12] , state whether its 50% inhibition concentration, Regnase-1 phosphorylation by IKKβ (AlphaScreen) is greater than or equal to 20 µM. Condition not met
